Value source: PubChem BioAssay AID1012

Target desc: Alkaline phosphatase, tissue-nonspecific isozyme (Homo sapiens)
Protocol notes: human TNAP enzyme inhibitors, primary screen, biochemical, luminescent, no phosphate acceptor, uHTS (AID 1012);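 note: 0% = DMSO negative control and 100% = EDTA positive control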
Reported conditions: purified TNAP, CDP-star luminescence, 30 min; at 20 µM; hits give high values
Hit rate of the full screen: of about 200,000 compounds, about 520 (0.26%) were called active. Shown is part of a subset that was picked to be rich in actives.
For each record, write down the corresponding inhibition.
Numbers only, in %.

Here's what some known entries look like.
compound=CCCCOc1ccc(N(CC(=O)NC(C)C)C(=O)CCC(=O)Nc2ccccn2)cc1 data_value=-3.6
compound=CCN1CCN(c2ccc(NC(=O)c3cnccn3)cc2)CC1 data_value=-10.4
compound="CC(C)(C)C1CCC(OC(=O)CCC(=O)Nc2ccccc2)CC1 (stereo not given)" data_value=-5.1
compound=Cc1ccnc(NC(=O)c2ccc(Cl)c([N+](=O)[O-])c2)c1 data_value=-11.1

Let's switch to this compound now.
Tested on Alkaline phosphatase, tissue-nonspecific isozyme (Homo sapiens): Cc1cccc(NC(=S)NCCc2ccc(F)cc2)c1C . Observed inhibition: -8.2
